All values here come from paper PMC8217266.

- EXPERIMENTAL SYSTEM: human OCT1 (Homo sapiens, UniProt O15245)
- Sequence (O15245 whole entry): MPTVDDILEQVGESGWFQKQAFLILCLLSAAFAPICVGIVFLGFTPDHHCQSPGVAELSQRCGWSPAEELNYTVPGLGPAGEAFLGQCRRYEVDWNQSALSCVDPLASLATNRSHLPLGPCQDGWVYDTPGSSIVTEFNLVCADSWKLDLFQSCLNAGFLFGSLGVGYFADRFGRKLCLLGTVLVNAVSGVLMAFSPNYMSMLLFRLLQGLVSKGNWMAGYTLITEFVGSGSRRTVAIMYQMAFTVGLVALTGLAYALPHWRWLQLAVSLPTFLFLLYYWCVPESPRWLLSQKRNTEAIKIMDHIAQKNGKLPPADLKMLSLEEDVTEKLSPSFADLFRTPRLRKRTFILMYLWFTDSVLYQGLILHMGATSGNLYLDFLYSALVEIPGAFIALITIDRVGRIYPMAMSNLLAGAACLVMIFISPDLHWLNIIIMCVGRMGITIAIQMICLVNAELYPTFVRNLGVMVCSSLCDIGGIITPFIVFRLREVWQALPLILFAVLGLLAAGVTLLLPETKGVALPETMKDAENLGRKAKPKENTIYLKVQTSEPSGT
- ASSAY INFO: cell-based
Mark 1 (yes) only when IC50 stays strictly below 20 µM. Values equal to the cut-off are 0 (no).

>  <COMPOUND>
Cc1cccc(C)c1OCC(=O)N[C@@H](Cc1ccccc1)[C@@H](O)C[C@H](Cc1ccccc1)NC(=O)[C@H](C(C)C)N1CCCNC1=O

>  <ASSIGNED LABEL>
0 (no)

$$$$
>  <COMPOUND>
CCS(=O)(=O)N1CC(CC#N)(n2cc(-c3ncnc4[nH]ccc34)cn2)C1

>  <ASSIGNED LABEL>
0 (no)

$$$$
>  <COMPOUND>
C[C@@H]1CCN(C(=O)CC#N)C[C@@H]1N(C)c1ncnc2[nH]ccc12

>  <ASSIGNED LABEL>
0 (no)

$$$$
>  <COMPOUND>
CCCCCCCCc1ccc(CCC(N)(CO)CO)cc1

>  <ASSIGNED LABEL>
0 (no)

$$$$
>  <COMPOUND>
CCOC(=O)c1c(CSc2ccccc2)n(C)c2cc(Br)c(O)c(CN(C)C)c12

>  <ASSIGNED LABEL>
1 (yes)

$$$$

[ask] Report whether reported IC50 is lower than 20 µM (strictly) for Cc1oncc1C(=O)Nc1ccc(C(F)(F)F)cc1 [Leflunomide]
[reply] 0 (no)

[ask] IC50 under 20 µM? Item: "CCCCc1nc(Cl)c(CO)n1Cc1ccc(-c2ccccc2-c2nn[nH]n2)cc1"
[reply] 0 (no)

[ask] Please let me know if "NC(=O)c1ncn([C@@H]2O[C@H](CO)[C@@H](O)[C@H]2O)n1" shows IC50 below 20 µM.
[reply] 0 (no)

[ask] Please determine if "CC[C@H]1OC(=O)[C@H](C)[C@@H](O[C@H]2C[C@@](C)(OC)[C@@H](O)[C@H](C)O2)[C@H](C)[C@@H](O[C@@H]2O[C@H](C)C[C@H](N(C)C)[C@H]2O)[C@](C)(O)C[C@@H](C)CN(C)[C@H](C)[C@@H](O)[C@]1(C)O" is below 20 µM in terms of IC50.
[reply] 0 (no)

[ask] Take the compound "COc1cc2nc(N3CCN(C(=O)c4ccco4)CC3)nc(N)c2cc1OC" and say whether its IC50 is less than 20 µM.
[reply] 1 (yes)

[ask] Given "CCOC(=O)C1=C[C@@H](OC(CC)CC)[C@H](NC(C)=O)[C@@H](N)C1" , is recorded IC50 strictly lower than 20 µM?
[reply] 0 (no)

[ask] Dear reviewer, please state whether "COc1ccc2cc1Oc1ccc(cc1)C[C@H]1c3cc(c(OC)cc3CCN1C)Oc1c(OC)c(OC)cc3c1[C@H](C2)N(C)CC3" has IC50 strictly beneath 20 µM.
[reply] 1 (yes)

[ask] Quick check: does CCN(CC)CCCC(C)Nc1ccnc2cc(Cl)ccc12 (stereo not shown) have IC50 under 20 µM?
[reply] 1 (yes)
